- System: EKVX NSCLC
- Test: NCI-60 one-dose screen, 48 h (100 = growth as untreated, 0 = no growth, -100 = all killed)
- Condition Summary: 10 µM unless noted
This is part of a sample that, as a whole, favours compounds with a hit. Of some 83,000 tested, about 20% had one in any assay.
Experimental Readout: growth (%)
Provide only the numeric value, understood in %.

Would you please look over these solved cases?
{"columns": ["Compound", "growth [%]"],
 "data": [
  ["CCOC(=O)c1ccc(NC(=O)CSC(N)=O)cc1", 128],
  ["Cc1csc(N/N=C/c2ccncc2)n1", 90.1],
  ["c1cc(C2CCCCC2)ccc1-c1cnc2nonc2n1", 37.3],
  ["O=C(Nc1ccc([N+](=O)[O-])cc1)c1cc2ccccc2cc1O", 2.38],
  ["Cc1ccc(Nc2cccc3ccccc23)cc1", 101],
  ["Cc1c(C(=O)Nc2ccccc2F)sc2c(=O)[nH]cnc12", 91]
]}

Reading of growth for CCOC(=O)C(Cc1ccccc1)n1c(O)c(/C=N/c2ncc(Cc3ccc(Cl)cc3Cl)s2)sc1=S (configuration not stated) with EKVX NSCLC: 10.8

Observed growth on EKVX NSCLC, entry COc1ccc([C@H]2c3[nH]c4ccccc4c3C[C@H]3C(=O)N(CCCCCCC(=O)NO)CC(=O)N23)cc1 , equals 66.8

The reported EKVX NSCLC growth of COC1(OC)C2(Cl)CCC1(Cl)C(Cl)=C2Cl is 104
